molecular target: somatostatin receptor type 2 (SST2) (Homo sapiens, UniProt P30874); assay: saturation binding of radioligand on HEK-SST2 cell membranes
Sequence (P30874 whole entry): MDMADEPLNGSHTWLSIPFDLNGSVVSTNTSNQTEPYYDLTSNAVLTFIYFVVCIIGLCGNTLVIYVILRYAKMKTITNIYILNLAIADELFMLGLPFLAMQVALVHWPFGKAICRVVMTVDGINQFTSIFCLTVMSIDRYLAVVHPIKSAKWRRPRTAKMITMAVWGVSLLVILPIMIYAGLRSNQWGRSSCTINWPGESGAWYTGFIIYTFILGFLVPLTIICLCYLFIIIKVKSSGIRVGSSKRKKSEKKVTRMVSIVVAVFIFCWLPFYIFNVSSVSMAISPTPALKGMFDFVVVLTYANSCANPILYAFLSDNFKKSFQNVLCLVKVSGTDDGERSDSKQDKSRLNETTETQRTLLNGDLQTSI
Bridges are numbered along the chain shown (N, C = ends). [ ]: non-standard residue; d: D form. Aph(Hor) = 4-amino-phenylalanine(L-hydroorotic acid); dPhe(4-NHCONH2) = NC(=O)Nc1ccc(C[C@@H](N)C(=O)O)cc1; Cpa = not defined here; Ahx = NCCCCCC(=O)O
Reported metric: Kd (nM)

Worked set:
Binder	Kd [nM]
{(99mTc)Tc‑N4-Cpa}-[dC][Aph(Hor)][dPhe(4-NHCONH2)]KTC[dY]-NH2 (disulfide 1-6 (inferred); reading uncertain; also: 99mTc complex, printed as Cpa-c(dCys-Aph(Hor)-dAph(Cbm)-Lys-Thr-Cys)-dTyr-NH2) [[99mTc]Tc-N4-JR11]	0.6
{(99mTc)Tc‑HYNIC/EDDA-Ahx-Cpa}-[dC][Aph(Hor)][dPhe(4-NHCONH2)]KTC[dY]-NH2 (disulfide 1-6 (inferred); reading uncertain; also: 99mTc complex, EDDA coligand, printed as Cpa-c(dCys-Aph(Hor)-dAph(Cbm)-Lys-Thr-Cys)-dTyr-NH2) [[99mTc]Tc-HYNIC-Ahx-JR11]	0.85

I = {(99mTc)Tc‑HYNIC/EDDA-Ahx-Cpa}-[dC]Y[dW]KTC[dY]-NH2 (disulfide 1-6 (inferred); reading uncertain; also: 99mTc complex, EDDA coligand) [[99mTc]Tc-HYNIC-Ahx-SS01]
II = {(99mTc)Tc‑N4-Cpa}-[dC]Y[dW]KTC[dY]-NH2 (disulfide 1-6 (inferred); reading uncertain; also: 99mTc complex) [[99mTc]Tc-N4-SS01]
Problem: # argmax over Kd for candidates I and II Write the label of whichever entry you select.
Result: I
(I: 1.6 nM, II: 0.92 nM)

// data source = paper PMC8065591
